# Test system: NCI-H2170
# Test Summary: relative viability (nuclei count vs DMSO), 5 days (fraction); higher = more cells survive
# Recorded Conditions: first compound 0.2 µM
Classify on relative viability using Low = under 0.4, Mid = from 0.4 up to 0.7, High = 0.7 and over

Hi, small favor: classify CN1CCN(CCOc2cc(OC3CCOCC3)c3c(Nc4c(Cl)ccc5c4OCO5)ncnc3c2)CC1 [Saracatinib] + CC(=O)Nc1cccc(-n2c(=O)n(C3CC3)c(=O)c3c(Nc4ccc(I)cc4F)n(C)c(=O)c(C)c32)c1 [Trametinib] (partner 0.02 µM) by its relative viability when you get a moment. High

Again, but for CCNC(=O)c1noc(-c2cc(C(C)C)c(O)cc2O)c1-c1ccc(CN2CCOCC2)cc1 [Luminespib] + Cc1nc(NC(=O)N2CCC[C@H]2C(N)=O)sc1-c1ccnc(C(C)(C)C(F)(F)F)c1 [Alpelisib] (partner 2 µM) Low

Quick one: CN1CCN(CCOc2cc(OC3CCOCC3)c3c(Nc4c(Cl)ccc5c4OCO5)ncnc3c2)CC1 [Saracatinib] + NC(=O)Nc1cc(-c2cccc(F)c2)sc1C(=O)N[C@H]1CCCNC1 [AZD7762] (partner 0.2 µM) High

Similarly, CN1CCN(CCOc2cc(OC3CCOCC3)c3c(Nc4c(Cl)ccc5c4OCO5)ncnc3c2)CC1 [Saracatinib] + COc1cccc2cc(-c3nc([C@H]4CC[C@H](C(=O)O)CC4)n4ncnc(N)c34)[nH]c12 [OSI-027] (partner 0.5 µM) ? Mid

Quick one: CN1CCN(CCOc2cc(OC3CCOCC3)c3c(Nc4c(Cl)ccc5c4OCO5)ncnc3c2)CC1 [Saracatinib] + Cc1nc(Nc2ncc(C(=O)Nc3c(C)cccc3Cl)s2)cc(N2CCN(CCO)CC2)n1 [Dasatinib] (partner 0.075 µM) Mid

Please answer likewise for CN1CCN(CCOc2cc(OC3CCOCC3)c3c(Nc4c(Cl)ccc5c4OCO5)ncnc3c2)CC1 [Saracatinib] + O=C(CCCCCCC(=O)Nc1ccccc1)NO [Vorinostat] (partner 1 µM) Mid

Input Cc1csc(=NC2CCCCC2)n1/N=C/c1ccc(O)c(O)c1O [MIM1] + Nc1ncn([C@H]2C[C@H](O)[C@@H](CO)O2)c(=O)n1 [Decitabine] (partner 2 µM) Mid

Same question for CN1CCN(CCOc2cc(OC3CCOCC3)c3c(Nc4c(Cl)ccc5c4OCO5)ncnc3c2)CC1 [Saracatinib] + N=C(N)NC(=N)NCCc1ccccc1 [Phenformin] (partner 250 µM) please. Low

----------
# Test system: NCI-H2347
# Test Summary: relative viability (nuclei count vs DMSO), 5 days (fraction); higher = more cells survive
# Recorded Conditions: first compound 8 µM
Assay Endpoint: relative viability

Look up relative viability: Nc1cccc2c1CN(C1CCC(=O)NC1=O)C2=O (stereo not drawn) [Lenalidomide] + Cc1cc(Nc2cc(N3CCN(C)CC3)nc(Sc3ccc(NC(=O)C4CC4)cc3)n2)n[nH]1 [Tozasertib] (partner 0.1 µM) 0.599

Same again, this time with Nc1cccc2c1CN(C1CCC(=O)NC1=O)C2=O (stereo not drawn) [Lenalidomide] + C[C@]1(O)C[C@@H](c2nc(-c3ccc4ccc(-c5ccccc5)nc4c3)c3c(N)nccn32)C1 [Linsitinib] (partner 1 µM) 0.808

Would you kindly repeat that for Nc1cccc2c1CN(C1CCC(=O)NC1=O)C2=O (stereo not drawn) [Lenalidomide] + CCNC(=O)c1noc(-c2cc(C(C)C)c(O)cc2O)c1-c1ccc(CN2CCOCC2)cc1 [Luminespib] (partner 0.01 µM) ? 0.249
